B1: TMEM106C (parent)
chain: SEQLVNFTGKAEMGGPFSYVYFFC

# Variants of: B1
# experimental.protocol: protein stability index of a GFP-peptide fusion (GPS, HEK-293T) (PSI 1-6); higher = more stable;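 also: lentivirally expressed fusions sorted by FACS into six bins by GFP to DsRed ratio, PSI derived from sequencing read proportions per bin multiplied by bin number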
# protocol.conditions: c terminus: a fixed tail appended
test.readout: protein stability index
One number for each entry.

As a guide, the following entries are already answered.
INSERT INTO measurements (sequence_content, measured) VALUES
  ('SEQLVNFTGKAEMGGPFSYVYFWC [F23W]', 3.85),
  ('SEQLPNFTGKAEMGGPFSYVYFFC [V5P]', 4.22),
  ('SEQLVNFTGKAEWGGPFSYVYFFC [M13W]', 2.15),
  ('SEQLVNFFGKAEMGGPFSYVYFFC [T8F]', 1.62);

For the 6 variants below, give their protein stability index values.
1. SEQLVNFTGKAEMGGPFSTVYFFC [Y19T]
2. SEQLVNFTGKAEMGGPFSYVYFFI [C24I]
3. SEQLVNFTGKAEMGGPFSYVYFFT [C24T]
4. SEQLVNFTGKAEMGGPFSYWYFFC [V20W]
5. SEQLVNFTGKAEMGGPFSYVYFKC [F23K]
6. SEQLVNFYGKAEMGGPFSYVYFFC [T8Y]

## Result
[2.33, 3.26, 3.96, 1.79, 1.79, 3.78]

Hello, I would appreciate it if you could give protein stability index for each entry below.
1. SEQLVVFTGKAEMGGPFSYVYFFC [N6V]
2. SEQLVNFTGKCEMGGPFSYVYFFC [A11C]
3. SEQLVNFTGKAEMSGPFSYVYFFC [G14S]
4. SEQLVNFTGKAEMGGPFSYVYFFY [C24Y]
5. SEQLVDFTGKAEMGGPFSYVYFFC [N6D]
6. SEQLVNFTGKAPMGGPFSYVYFFC [E12P]
7. SEQLVHFTGKAEMGGPFSYVYFFC [N6H]
8. SEQLVNLTGKAEMGGPFSYVYFFC [F7L]

## Result
[2.18, 2, 3.33, 3.05, 2.88, 3.12, 1.97, 3.36]

Below is a list of variants. For each, state its recorded protein stability index.
1. SEQLVNFTGKAEMGGPFSYCYFFC [V20C]
2. SEQLVNFSGKAEMGGPFSYVYFFC [T8S]
3. SEQLVNFTGKAEMGGPFSYVYFTC [F23T]
4. SEQLVNFTCKAEMGGPFSYVYFFC [G9C]
5. SEQLVNFTGKAEMGGPFSYVYFFK [C24K]

## Result
[3.09, 2.29, 2.05, 2.05, 2.07]

Provide reported protein stability index for each item, in the same order as listed.
1. SEQTVNFTGKAEMGGPFSYVYFFC [L4T]
2. SEQFVNFTGKAEMGGPFSYVYFFC [L4F]
3. SEQLVNFTGKAEMGGPYSYVYFFC [F17Y]
4. SEQLVNFTGKAEMAGPFSYVYFFC [G14A]
5. SEQLVNWTGKAEMGGPFSYVYFFC [F7W]

## Result
1. 3.41
2. 2.75
3. 2.21
4. 3.63
5. 2.51
